Target: T1, Pepsinogen C (PGC) (human)
T1 chain: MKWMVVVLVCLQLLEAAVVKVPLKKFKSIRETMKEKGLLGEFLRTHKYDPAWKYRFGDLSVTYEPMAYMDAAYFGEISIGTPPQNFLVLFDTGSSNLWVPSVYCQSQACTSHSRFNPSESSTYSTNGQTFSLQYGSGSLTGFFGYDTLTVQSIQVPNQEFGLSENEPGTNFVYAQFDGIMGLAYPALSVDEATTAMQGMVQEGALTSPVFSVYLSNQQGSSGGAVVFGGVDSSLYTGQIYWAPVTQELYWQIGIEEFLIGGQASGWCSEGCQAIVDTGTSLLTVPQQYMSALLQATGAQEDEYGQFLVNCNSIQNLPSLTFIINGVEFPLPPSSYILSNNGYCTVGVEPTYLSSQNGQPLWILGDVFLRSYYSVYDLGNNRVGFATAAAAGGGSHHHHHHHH
Assay: SPR, 37C, order of magnitude only
Listed binders paired with reported Kd

Recorded Kd, per entry:
| binder | Kd |
| --- | --- |
| mAb 27 (antibody, V domains shown) VH: QIQLVQSGPELKKPGETVKISCKASGYTFTNYGMNWVKQAPGKGLKWIGWINTYTGDPTYADDFKGRFAFSLETSASNGYLQIDNLKKEDTATYFCARRDIFAMDYWGQGTSVTVSS VL: DIQMTQTTSSLSASLGDRVTITCRASQDIMKYLHWYQQKPDGTIKLLFYYTSRLHSGVPSRFSGSGSGTDYSLTISNLEQEDIATYFCQQDVKYPWTFGGGTKLEIK | ~0.1 nM |
| mAb 123 (antibody, V domains shown) VH: QIQLVQSGPELKKPGETVKISCKGSGYTFTNYGMNWVKQAPGKGLKWMGWINTYTGDPTYADDFKGRIAFSLETSASTAYLQIDNLKNEDTATYFCARRDIFAMDYWGQGTSVTVSS VL: DIQMTQTTSSLSASLGDRVTITCRASQDIMKYLHWYQQKPDGTVKLLIYYTSRLHSGVPSRFSGSGSGTDYSLTISNLEQEDIATYFCQQDIKYPWTFGGGTKLEIK | ~0.1 nM |
| mAb 75 (antibody, V domains shown) VH: QIQLVQSGPELKKPGETVKISCKASGYTFTNYGMNWVKQAPGKGLKWMGLINTYTRGPTFADDFKGRFAFSVETSANTAYLQINNLKTEDTATYFCARRGEYYGSSYVDYWGQGTTLTVSS VL: DIQMTQITSSLSASLGDRVTISCRASQDIMHFLNWYQQKPDGTVKLLIYYTSRLHSGVPSRFSGSGSGTDYSLTITNLEPEDIATYYCQQHSNLPPTFGGGTKLEIK | ~0.1 nM |
| mAb 22 (antibody, V domains shown) VH: QIQLVQSGPELKKPGETVKISCKASGYTFTNYGMNWVKQAPGKGLKWIGWINTYTGDPTYADDFKGRFAFSLETSASNGYLQIDNLKKEDTATYFCARRDIFAMDYWGQGTSVTVSS VL: DIQMTQTTSSLSASLGDRVTITCRASQDIMKYLHWYQQKPDGTIKLLIYYTSRLHSGVPSRFSGSGSGTDYSLTISNLEQEDIATYFCQQDVKYPWTFGGGTKLEIK | ~0.01 nM |

Request the reported Kd associated with mAb 11 (antibody, V domains shown) VH: QVQLQQPGTELVKPGASVKLSCKASGYTFTNYWMHWVKQRPGQGLEWIGNINPFNGATNYNDNFKTKATLTVDKSSSTAYMHLSSLTSEDSAVYYCARYDYSKYYAMDYWGQGTSVTVSS VL: ENVLTQSPAIMAASPGDKVTMTCSASSSINSAHFHWYQQKPGTSPKLWIYRTSNLASGVPARFSGRGSGTSYSLTISSMEAADAATYYCQQWSDYPWTFGGGTKLEIR
~0.1 nM
